# Test system: Hek293T
# measurement_protocol: Primary qHTS to identify gynecologic anti-cancer compounds using libraries of approved drugs and bioactive compounds (AID 1345084); further: nearly all actives have a fitted effect of over 55% in size
# experimental_parameters: Gynecologic cancer cell panel viability, ATPlite luminescence, 48 h, control line for the selectivity index; series mostly up to 57.5 µM
Inconclusive results are not listed. Active and inactive are the calls of the source. The call rests on the fitted dose curve; in most records, active means well fitted cell-killing curve with a large enough effect; inconclusive means small, poorly fitted or top-dose-only effect, or effect the other way; inactive means flat fitted curve, though single readings scatter.
Parameter call: string, one of active, inactive

[Q] Could you check what this test reported for `COC(=O)C1=CO[C@@H](O[C@@H]2O[C@H](CO)[C@@H](O)[C@H](O)[C@H]2O)[C@@H]2[C@@](C)(O)[C@@H](OC(=O)/C=C/c3ccc(O)cc3)C[C@]12O` ?
[A] inactive

[Q] Could you check what this test reported for CC1=CC(=O)C2C(C)(C)CCC[C@]2(C)[C@H]1CO (stereo partly drawn) ?
[A] inactive

[Q] Could you check what this test reported for `COc1cc2ncnc(Nc3ccc(O)cc3)c2cc1OC` ?
[A] inactive

[Q] Could you check what this test reported for CC(=O)OC1C[C@@]2(C)[C@@H](CC[C@@H](C)[C@]23Cc2c(O)cc4c(c2O3)CNC4=O)C(C)(C)[C@@H]1O (stereo partly drawn) ?
[A] inactive

[Q] Could you check what this test reported for `Cc1ccc(-c2ccc3ncc4c(c3n2)n(C2CCN(C(=O)[C@H](C)O)CC2)c(=O)n4C)cn1` ?
[A] active

[Q] Could you check what this test reported for `Clc1cc2c(NC3CCCC3)nnc(-c3ccncc3)c2cc1Cl` ?
[A] inactive

[Q] Could you check what this test reported for `C=C1C[C@]23C[C@H]1CC[C@H]2[C@@]12CC[C@H](O)[C@@](C)(C(=O)O1)[C@H]2[C@@H]3C(=O)O` ?
[A] inactive

[Q] Could you check what this test reported for `C[C@@H]1CN(Cc2ncccn2)C[C@H]1c1nc2c(cnn2C2CCOCC2)c(=O)[nH]1` ?
[A] inactive

* * *

# Tested on: Hek293T
# measurement_protocol: Primary qHTS to identify gynecologic anti-cancer compounds using libraries of approved drugs and bioactive compounds (AID 1345084); further: nearly all actives have a fitted effect of over 55% in size
# experimental_parameters: Gynecologic cancer cell panel viability, ATPlite luminescence, 48 h, control line for the selectivity index; series mostly up to 57.5 µM
Results filed as inconclusive are left out. Activity calls are given as the source filed them. Calls come from the whole dose curve; as a rule, active = well fitted cell-killing curve with a large enough effect; inconclusive = small, poorly fitted or top-dose-only effect, or effect the other way; inactive = flat fitted curve, though single readings scatter.
Parameter call: string, one of 1 (yes) = active, 0 (no) = inactive

[Q] Could you check what this test reported for `O=[N+]([O-])c1cccc2[nH]c(CNc3nc(N4CCOCC4)nc4c3ncn4-c3ccsc3)nc12` ?
[A] 1 (yes)

[Q] Could you check what this test reported for `CCCn1c(=O)c2[nH]c(-c3ccc(OCC(=O)O)cc3)nc2n(CCC)c1=O` ?
[A] 0 (no)

[Q] Could you check what this test reported for C/C=C/C1=CC2=C(CO1)C(=O)C(C)(O)C(OC(=O)c1c(C)cc(OC)cc1O)C2 (stereo not given) ?
[A] 0 (no)

[Q] Could you check what this test reported for COC1C(CO)OC(n2cnc3c(=O)[nH]cnc32)C1O (stereo not given) ?
[A] 0 (no)

[Q] Could you check what this test reported for `CCc1c(C)nc2c(-c3cnn(-c4cc(CO)ccn4)c3)c[nH]n2c1=O` ?
[A] 0 (no)

[Q] Could you check what this test reported for `Cc1cc(C(N)=O)ccc1-n1c(CCC(=O)O)ccc1-c1ccc(-n2ccnc2)cc1` ?
[A] 0 (no)

[Q] Could you check what this test reported for `CC(C)[C@@H]1C(=O)N(S(C)(=O)=O)[C@@H]2CCN(C(=O)/C=C/CN3CCCCC3)[C@H]21` ?
[A] 0 (no)

[Q] Could you check what this test reported for `C[C@@H]1CN(Cc2ccccc2)C[C@H]1c1nc2c(cnn2C2CCOCC2)c(=O)[nH]1` ?
[A] 0 (no)

[Q] Could you check what this test reported for CC1CCCCN1S(=O)(=O)c1ccc(N2CCCC2=O)cc1 (stereo not given) ?
[A] 0 (no)

[Q] Could you check what this test reported for `Cn1nnc(-c2ccc(-c3ccc(N4C[C@H](CO)OC4=O)cc3F)cn2)n1` ?
[A] 0 (no)

* * *

# measurement_protocol: Primary qHTS for inhibitors of nuclear receptor binding SET domain protein 2 (NSD2) in an isogenic RCH-ACV NSD2 p.E1099K mutant (9B) (AID 1645876); further: nearly all actives have a fitted effect of over 70% in size
# experimental_parameters: RCH-ACV (leukaemia line) NSD2 E1099K (9B) viability, CellTiter-Glo, 72 h; series mostly up to 44.9 µM
Inconclusive results are not listed. Calls of active or inactive are those of the source. The call rests on the fitted dose curve; in most records, active means well fitted inhibition curve with a large enough effect; inconclusive means small, poorly fitted or top-dose-only effect; inactive means flat fitted curve, though single readings scatter.
Parameter call: string, one of active, inactive

Solved cases (6 shown):
COc1ccc(CNC(=O)c2cc(-c3cncc(C)c3)ncc2-c2nccs2)nc1OC	inactive
COc1cc(Br)c(Nc2nc(-c3c(C)nc4ncccn34)cs2)c(Br)c1	active
C/C=C/c1ccc(O[C@@H]2O[C@H](CO)[C@@H](O)[C@H](O)[C@H]2O)c(OC)c1	inactive
C=C[C@@]12COC(=O)C(=C)C1[C@@H](O)[C@H](C(=C)C(=O)OC)[C@@H](OC(=O)C(=C)CO)C2 (stereo partly drawn)	active
CC(C)(C)OC(=O)N1CCC(OCc2nc(-c3ccncc3)no2)CC1	inactive
CC(C)(C)c1ccc(S(=O)(=O)Nc2ccc(Cl)cc2C(=O)c2cc[n+]([O-])cc2)cc1	inactive

[Q] Could you check what this test reported for C=C1C(O)CC2C(C(=O)O)=COC(O[C@@H]3O[C@H](COC(=O)/C=C/c4ccc(O)cc4)[C@@H](O)[C@H](O)[C@H]3O)C12 (stereo partly drawn) ?
[A] inactive

[Q] Could you check what this test reported for CC1(C)C2CC(OC3OC(COC4OCC(O)(CO)C4O)C(O)C(O)C3O)C1(C)CC2O (stereo not drawn) ?
[A] inactive

[Q] Could you check what this test reported for `Nc1ncnc2c([C@@H]3N[C@H](CO)[C@@H](O)[C@H]3O)c[nH]c12` ?
[A] inactive

[Q] Could you check what this test reported for `OCc1ccc(O[C@@H]2O[C@H](CO)[C@@H](O)[C@H](O)[C@H]2O)cc1` ?
[A] inactive

[Q] Could you check what this test reported for `CCOc1cc(C)c(Cl)cc1S(=O)(=O)n1cnc2ccccc21` ?
[A] inactive

[Q] Could you check what this test reported for CN(C)c1nc(NC2CCC(NC(=O)c3ccc(F)c(F)c3)CC2)nc2ccccc12 (stereo not drawn) ?
[A] active

[Q] Could you check what this test reported for `CC[C@H](C)[C@H](NC(=O)[C@H]([C@@H](C)CC)N(C)C(C)=O)C(=O)N[C@H](C(=O)N[C@@H](CC(C)C)C(=O)[C@@]1(C)CO1)[C@@H](C)O` ?
[A] active

[Q] Could you check what this test reported for C=C[C@H]1C(O[C@@H]2O[C@H](CO)[C@@H](O)[C@H](O)[C@H]2O)OC=C2C(=O)N3CCc4c([nH]c5ccccc45)[C@H]3C[C@H]21 (stereo partly drawn) ?
[A] inactive

[Q] Could you check what this test reported for COC(=O)c1ccc(OC(CO)C(O)c2ccc(O)c(OC)c2)c(OC)c1 (stereo not drawn) ?
[A] inactive

[Q] Could you check what this test reported for CC1(C)CC2=C3C=CC4C5(C)CCC(O)C(C)(C)C5CCC4(C)C3(C)CCC2(C)C(O)C1 (stereo not drawn) ?
[A] inactive

[Q] Could you check what this test reported for CC(=O)c1ccc2c(c1)C(O)C(C(C)(C)O)O2 (stereo not drawn) ?
[A] inactive

[Q] Could you check what this test reported for CC1(C)CCCC2(C)C=C(C(=O)O)C(O)CC12 (stereo not drawn) ?
[A] inactive

[Q] Could you check what this test reported for C[C@@H]1C(=O)O[C@H]2[C@@H](O)C34[C@H]5C[C@@H](C(C)(C)C)C36[C@@H](OC(=O)[C@@H]6O)O[C@@]4(C(=O)O5)[C@@]12O (stereo partly drawn) ?
[A] inactive

[Q] Could you check what this test reported for C=CC1(C)C=C2CCC3C(C)(C)C(O[C@@H]4O[C@@H](CO)[C@H](O)[C@H]4O)CCC3(C)C2CC1O[C@@H]1O[C@H](C)[C@H](O)[C@H](O)[C@H]1O (stereo partly drawn) ?
[A] inactive

[Q] Could you check what this test reported for `C=C1C(=O)O[C@H](CCC)[C@H]1C(=O)O` ?
[A] inactive

[Q] Could you check what this test reported for CC12CCC3c4ccc(O)cc4CCC3C1CC(OC1OC(C(=O)O)C(O)C(O)C1O)C2O (stereo not drawn) ?
[A] inactive

[Q] Could you check what this test reported for `CC(C)C[C@H](CC(=O)NO)C(=O)N[C@@H](Cc1ccc2ccccc2c1)C(=O)N[C@@H](C)C(=O)NCCN` ?
[A] inactive

* * *

# Test system: Tov112D
# measurement_protocol: Primary qHTS to identify gynecologic anti-cancer compounds using libraries of approved drugs and bioactive compounds (AID 1345084); further: nearly all actives have a fitted effect of over 55% in size
# experimental_parameters: Gynecologic cancer cell panel viability, ATPlite luminescence, 48 h; series mostly up to 57.5 µM
# Text: National Center for Advancing Translational Sciences [NCATS] Assay Overview: Chemotherapeutic drug responses vary from cancer to cancer and from patient to patient. […] ATPlite is a luminescence based assay reliant on the conversion of a luciferase substrate to light in the presence of ATP. As a cytotoxic compound will suppress growth and decrease the number of cells, the concentration of ATP will decrease, and less light signal will be detected in the well. […]
Records with an inconclusive call do not appear. Activity calls are given as the source filed them. Calls come from the whole dose curve; as a rule, active = well fitted cell-killing curve with a large enough effect; inconclusive = small, poorly fitted or top-dose-only effect, or effect the other way; inactive = flat fitted curve, though single readings scatter.
Parameter call: string, one of y = active, n = inactive

Solved cases (5 shown):
O=C(O)c1cn(C2CC2)c2cc(N3C[C@@H]4C[C@H]3CN4)c(F)cc2c1=O	n
COc1cc(/C=C/C(=O)O[C@H]2[C@H](O)[C@@H](CO)O[C@@]2(CO)O[C@H]2O[C@H](CO)[C@@H](O)[C@H](O)[C@H]2O)ccc1O	n
O=C(/C=C\c1ccc(O)cc1)N[C@@H](Cc1ccc(O)cc1)C(=O)O	n
C=C(C)C1CCC(C)C12CC(O)C1(C)OC1C2OC(=O)C(N)CCC(=O)O (stereo not given)	n
CC(C)C(N)C(=O)OCCOCn1cnc2c(=O)[nH]c(N)nc21 (stereo not given)	n

[Q] Could you check what this test reported for Cc1cn(C2C=CC(CO)O2)c(=O)[nH]c1=O (stereo not given) ?
[A] n

[Q] Could you check what this test reported for `Cc1[nH]nc(C(F)(F)F)c1Cc1sc2c(c1C(=O)N1C[C@](C)(O)CO1)c(=O)n(C)c(=O)n2C(C)C` ?
[A] n

[Q] Could you check what this test reported for C=C(CO)C12OC1C1(C)C(=CC2=O)C(O)C(O)CC1C (stereo not given) ?
[A] n
